System: KRAS PDC multicell spheroid viability;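 also: spheroids exposed to compounds for 7 days; 100% = DMSO vehicle control viability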
assay_text: Anticancer human tumor 825966-067-R-J1-PDC patient-derived colon carcinoma cell line growth inhibition [KRAS2]
measurement_setup: compound 0.316 µM; stronger effect = lower value
measure_name: viability, T/C

Cn1nccc1Nc1nccc(-c2cc3c(s2)C(C)(C)N(CCN2CCOCC2)C3=O)n1 : 109% [middle of 5 runs]

Each compound below has a recorded value; state its viability, T/C.
1. CC1(C)CCC(CN2CCN(c3ccc(C(=O)NS(=O)(=O)c4ccc(NCC5CCOCC5)c([N+](=O)[O-])c4)c(Oc4cnc5[nH]ccc5c4)c3)CC2)=C(c2ccc(Cl)cc2)C1
2. COc1cc(OC)cc(N(CCNC(C)C)c2ccc3ncc(-c4cnn(C)c4)nc3c2)c1
3. CC(C)NCC(C(=O)N1CCN(c2ncnc3c2C(C)CC3O)CC1)c1ccc(Cl)cc1 (stereo not drawn)

Output line:
102% [middle of 5 runs]
91.1% [middle of 5 runs]
113% [middle of 5 runs]

Origin of the recorded values: PubChem BioAssay AID1963865
